Quick reference: OX2R agonist activity (3 μM, %) of the listed items.
Target: human orexin type 2 receptor (Homo sapiens)
Construct: expressed in transfected cells
Sequence (O43614 1-444): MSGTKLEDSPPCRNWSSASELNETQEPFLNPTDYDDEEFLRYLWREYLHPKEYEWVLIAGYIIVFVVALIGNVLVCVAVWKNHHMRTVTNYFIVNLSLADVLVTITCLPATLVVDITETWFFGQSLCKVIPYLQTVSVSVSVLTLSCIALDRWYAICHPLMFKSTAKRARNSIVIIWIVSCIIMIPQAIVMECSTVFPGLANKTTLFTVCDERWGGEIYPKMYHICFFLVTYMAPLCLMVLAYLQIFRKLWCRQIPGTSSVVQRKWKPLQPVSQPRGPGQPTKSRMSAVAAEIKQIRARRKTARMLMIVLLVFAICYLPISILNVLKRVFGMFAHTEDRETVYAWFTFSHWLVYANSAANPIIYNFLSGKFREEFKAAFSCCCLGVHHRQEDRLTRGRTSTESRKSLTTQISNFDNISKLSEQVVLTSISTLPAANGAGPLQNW
Experiment: Measurement of orexin type 2 receptor agonist activity (calcium indicator fluorescence, CHO cells forcibly expressing human OX2 receptor)
Format: cell-based
Settings: compound at 3 μM; 0% = DMSO, 100% = orexin A (human) 10 nM
MEASUREMENT_NAME: OX2R agonist activity (3 μM, %)

compound="O=C(C1CCO1)N1C[C@H](F)[C@H](NS(=O)(=O)C2CC2)[C@@H]1Cc1cccc(-c2ccccc2)c1F (stereo partly drawn) [Example 482]" measurement_name="OX2R agonist activity (3 μM, %)" recorded_result=100%
compound=CC(C)C(=O)N1CC(F)(F)[C@H](NS(C)(=O)=O)[C@@H]1Cc1cccc(-c2cc(F)cc(F)c2)c1 measurement_name="OX2R agonist activity (3 μM, %)" recorded_result=96%
compound=Cc1cccc(-c2cccc(C[C@H]3[C@@H](NS(C)(=O)=O)C(F)(F)CN3C(=O)C(C)(C)O)c2F)c1 measurement_name="OX2R agonist activity (3 μM, %)" recorded_result=108%
compound="CCS(=O)(=O)N[C@@H]1[C@H](Cc2cccc(-c3cc(F)ccc3F)c2F)N(C(=O)C2CCO2)CC1(F)F (stereo partly drawn)" measurement_name="OX2R agonist activity (3 μM, %)" recorded_result=97%
compound="CCS(=O)(=O)N[C@H]1[C@@H](F)CN(C(=O)C2CCO2)[C@H]1Cc1cccc(-c2cccc(C)c2F)c1F (stereo partly drawn)" measurement_name="OX2R agonist activity (3 μM, %)" recorded_result=96%
compound=CS(=O)(=O)N[C@H]1[C@@H](F)CN(C(=O)C23CC(C2)C3)[C@H]1Cc1cccc(-c2cc(F)cc(F)c2)c1F measurement_name="OX2R agonist activity (3 μM, %)" recorded_result=93%
compound="CCS(=O)(=O)N[C@@H]1[C@H](Cc2cccc(-c3cc(F)c(F)cc3F)c2F)N(C(=O)C2CCO2)CC1(F)F (stereo partly drawn) [Example 477]" measurement_name="OX2R agonist activity (3 μM, %)" recorded_result=96%
compound=CCS(=O)(=O)N[C@H]1[C@@H](F)CN(C(=O)N(C)C)[C@H]1Cc1cccc(-c2cc(F)ccc2F)c1F measurement_name="OX2R agonist activity (3 μM, %)" recorded_result=96%
compound="CCS(=O)(=O)N[C@H]1[C@@H](F)CN(C(=O)C2CCO2)[C@H]1Cc1cccc(-c2cccc(F)c2)c1F (stereo partly drawn) [Example 216]" measurement_name="OX2R agonist activity (3 μM, %)" recorded_result=95%
compound="Cc1cccc(-c2cccc(C[C@H]3[C@@H](NS(=O)(=O)C4CC4)C(F)(F)CN3C(=O)C3CCO3)c2F)c1 (stereo partly drawn)" measurement_name="OX2R agonist activity (3 μM, %)" recorded_result=100%
compound=CC(C)C(=O)N1CC(F)(F)[C@H](NS(=O)(=O)C2CC2)[C@@H]1Cc1cccc(-c2cccc(F)c2)c1F measurement_name="OX2R agonist activity (3 μM, %)" recorded_result=105%
compound=CN(C)S(=O)(=O)N[C@H]1[C@@H](F)CN(C(=O)N2CCC2)[C@H]1Cc1cccc(-c2cc(F)cc(F)c2)c1F measurement_name="OX2R agonist activity (3 μM, %)" recorded_result=84%
compound="Cc1cc(F)cc(-c2cccc(C[C@H]3[C@@H](NS(=O)(=O)C4CC4)[C@@H](F)CN3C(=O)C3CCO3)c2F)c1 (stereo partly drawn) [Example 486]" measurement_name="OX2R agonist activity (3 μM, %)" recorded_result=88%
compound=CC(C)(O)C(=O)N1CC(F)(F)[C@H](NS(C)(=O)=O)[C@@H]1Cc1cccc(-c2cccc(F)c2)c1F measurement_name="OX2R agonist activity (3 μM, %)" recorded_result=101%
compound=CC(C)(O)C(=O)N1C[C@H](F)[C@H](NS(C)(=O)=O)[C@@H]1Cc1cccc(-c2cc(F)cc(Cl)c2)c1F measurement_name="OX2R agonist activity (3 μM, %)" recorded_result=92%
compound=CCS(=O)(=O)N[C@H]1[C@@H](F)CN(C(=O)[C@H]2CCO2)[C@H]1Cc1cccc(-c2ccccc2)c1F measurement_name="OX2R agonist activity (3 μM, %)" recorded_result=85%
compound=CCS(=O)(=O)N[C@@H]1[C@H](Cc2cccc(-c3ccccc3)c2F)N(C(=O)C(C)C)CC1(F)F measurement_name="OX2R agonist activity (3 μM, %)" recorded_result=97%
compound="CCS(=O)(=O)N[C@@H]1[C@H](Cc2cccc(-c3cccc(Cl)c3)c2F)N(C(=O)C2CCO2)CC1(F)F (stereo partly drawn) [Example 267]" measurement_name="OX2R agonist activity (3 μM, %)" recorded_result=92%
compound=CCS(=O)(=O)N[C@H]1[C@@H](F)CN(C(=O)C2CC2)[C@H]1Cc1cccc(-c2ccccc2)c1F measurement_name="OX2R agonist activity (3 μM, %)" recorded_result=102%
compound=CCS(=O)(=O)N[C@@H]1[C@H](Cc2cccc(-c3cccc(F)c3F)c2F)N(C(=O)C2CC2)CC1(F)F measurement_name="OX2R agonist activity (3 μM, %)" recorded_result=89%
compound=CCS(=O)(=O)N[C@H]1[C@@H](F)CN(C(=O)N(C)C)[C@H]1Cc1cccc(-c2cccc(C)c2)c1F measurement_name="OX2R agonist activity (3 μM, %)" recorded_result=78%
compound=O=C(N1CC(F)(F)[C@H](NS(=O)(=O)C2CC2)[C@@H]1Cc1cccc(-c2cccc(F)c2F)c1F)C1(O)CCC1 measurement_name="OX2R agonist activity (3 μM, %)" recorded_result=95%
compound=CCS(=O)(=O)N[C@@H]1[C@H](Cc2cccc(-c3cccc(C)c3F)c2F)N(C(=O)N2CCC2)CC1(F)F measurement_name="OX2R agonist activity (3 μM, %)" recorded_result=90%
compound="CCS(=O)(=O)N[C@H]1[C@@H](F)CN(C(=O)C2CCO2)[C@H]1Cc1cccc(-c2cccc(C)c2)c1F (stereo partly drawn)" measurement_name="OX2R agonist activity (3 μM, %)" recorded_result=99%
compound="CCS(=O)(=O)N[C@@H]1[C@H](Cc2cccc(-c3cccc(F)c3F)c2)N(C(=O)C2CCO2)CC1(F)F (stereo partly drawn) [Example 174]" measurement_name="OX2R agonist activity (3 μM, %)" recorded_result=90%
compound=O=C(N1CCC1)N1C[C@H](F)[C@H](NS(=O)(=O)C2CC2)[C@@H]1Cc1cccc(-c2cc(F)cc(F)c2)c1F measurement_name="OX2R agonist activity (3 μM, %)" recorded_result=90%
compound=CCS(=O)(=O)N[C@@H]1[C@H](Cc2cccc(-c3cccc(OC)c3)c2F)N(C(=O)C(C)C)CC1(F)F measurement_name="OX2R agonist activity (3 μM, %)" recorded_result=98%
